Test system: PC-3
Method: NCI tumour cell line growth inhibition, 48 h
Activity calls are given as the source filed them. No stated cut-off is given here; in the data, active = GI50 up to about 1.1 µM and inactive = higher.
Measured Attribute: GI50

Molecule	Experimental Target	GI50
COc1cc2c(cc1C[C@H]1[C@@H]3C[C@H]4c5c(c6ccccc6n5C)C[C@@H]([C@@H]3CO[C@]1(C)OC(C)=O)N4C)c1c(n2C)C2C[C@H]3C(C(C)=O)=COC[C@H]3[C@H](C1)N2C	PC-3	0.462 µM (active)
C=CCc1c(Cl)nc(Cl)nc1Cl	PC-3	0.733 µM (active)

Lookup: Entry CCOC(=O)C(=O)C(CCC(=O)c1ccc2ccccc2c1O)C(=O)OCC (stereo unspecified) : reported GI50 = ?
Found: > 100 µM (inactive)

Lookup: Entry `CCOC(=O)/C(C(=S)Nc1ccccc1)=C(/N)N1CCCC1` : reported GI50 = ?
Found: 38.9 µM (inactive)

Lookup: Entry COc1cc2c(cc1OC)C1=Cc3ccc(OC)c(OC)c3C(C#N)N1CC2 (stereo unspecified) : reported GI50 = ?
Found: 32.4 µM (inactive)

Lookup: Entry `O=C(O)c1ccc(Nc2cnc3ccc(C(F)(F)F)cc3n2)cc1` : reported GI50 = ?
Found: 17.7 µM (inactive)
